EXPERIMENTAL_SYSTEM: EP3 membrane (EP3 receptor) (Homo sapiens)
Construct: purchased Millipore HTS092M
Sequence (P43115 whole entry): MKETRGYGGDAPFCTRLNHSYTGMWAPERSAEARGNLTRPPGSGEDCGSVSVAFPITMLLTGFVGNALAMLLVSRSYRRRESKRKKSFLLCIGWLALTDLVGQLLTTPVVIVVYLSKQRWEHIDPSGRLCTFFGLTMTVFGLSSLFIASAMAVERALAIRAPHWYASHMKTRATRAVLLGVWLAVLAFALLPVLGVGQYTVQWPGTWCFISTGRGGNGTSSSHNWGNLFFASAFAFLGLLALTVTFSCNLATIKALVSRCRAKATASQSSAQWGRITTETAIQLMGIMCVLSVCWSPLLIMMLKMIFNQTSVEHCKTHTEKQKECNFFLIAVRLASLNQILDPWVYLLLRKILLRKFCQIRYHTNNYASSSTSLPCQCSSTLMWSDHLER
ASSAY_EXPLANATION: [3H]-PGE2 binding; EP3 competition binding (SPA)
pKi: −log10 of the molar value.
Think of 8 as a floor: if pKi stands on it or above, it is Y; beneath it, N.

### Prompt Determine whether measured pKi meets or exceeds 8 for O=C(NC/C(F)=C1\CCc2cnn(Cc3ccc(Cl)cc3Cl)c21)NS(=O)(=O)c1cc(Cl)c(Cl)s1
### Response Y

### Prompt Next molecule: O=C(NC/C(F)=C1\COCc2cnn(-c3ccc(C(F)(F)F)cc3)c21)NS(=O)(=O)c1cc(Cl)c(Cl)s1
### Response N

### Prompt Next molecule: O=C(NC/C=C1\CCCc2cnn(Cc3ccc(Cl)cc3Cl)c21)NS(=O)(=O)c1cc2ccccc2s1
### Response Y

### Prompt Next molecule: O=C(NC/C(F)=C1\CCCc2cnn(-c3ccc4ccccc4c3)c21)NS(=O)(=O)c1ccc2c(c1)OCCO2
### Response N

### Prompt Next molecule: CC(C)S(=O)(=O)NC(=O)C/C=C1\CCCc2cnn(Cc3ccc(Cl)cc3Cl)c21
### Response N

### Prompt Next molecule: O=C(CC/C=C1\CCCc2cnn(Cc3ccc(Cl)cc3Cl)c21)NS(=O)(=O)c1ccc(Cl)cc1
### Response Y

### Prompt Next molecule: Cn1nccc1S(=O)(=O)NC(=O)NC/C(F)=C1\CCCc2cnn(Cc3ccc(Cl)cc3Cl)c21
### Response N

### Prompt Next molecule: O=C(NS(=O)(=O)c1ccc(Cl)cc1)OC/C=C1/c2c(cnn2Cc2ccc(Cl)cc2Cl)CCC1F (stereo not drawn)
### Response N

### Prompt Next molecule: O=C(NC/C(F)=C1\CCCc2cnn(Cc3ccc(Cl)cc3Cl)c21)NS(=O)(=O)c1cccc(Cl)c1
### Response N

### Prompt Next molecule: O=C(NC/C(F)=C1/c2c(cnn2Cc2ccc(Cl)cc2Cl)CCC1F)NS(=O)(=O)c1ccc(Cl)cc1 (stereo not drawn)
### Response N
